biological target: M4 (Homo sapiens); construct: expressed in transfected cells; assay: Secondary binding assay, Ki determination: M4
Sequence (P08173 whole entry): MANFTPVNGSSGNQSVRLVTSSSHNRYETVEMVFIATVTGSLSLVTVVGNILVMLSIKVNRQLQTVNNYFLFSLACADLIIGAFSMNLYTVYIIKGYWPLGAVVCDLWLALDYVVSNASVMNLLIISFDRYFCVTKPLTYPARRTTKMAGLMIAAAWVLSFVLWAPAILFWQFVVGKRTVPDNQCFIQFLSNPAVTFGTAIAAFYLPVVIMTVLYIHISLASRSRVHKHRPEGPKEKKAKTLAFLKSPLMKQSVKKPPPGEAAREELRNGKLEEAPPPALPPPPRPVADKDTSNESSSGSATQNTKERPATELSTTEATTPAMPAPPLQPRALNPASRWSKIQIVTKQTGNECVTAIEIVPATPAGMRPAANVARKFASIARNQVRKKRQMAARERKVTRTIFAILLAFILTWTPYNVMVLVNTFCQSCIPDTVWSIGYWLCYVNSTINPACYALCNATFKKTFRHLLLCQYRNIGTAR
Readout Label: Ki (nM)
One number for each entry, in nM.

QUERY: M4 (Homo sapiens) / Ki / "COc1cc2oc(C(=O)N(CCCN3CCCCC3)c3ccccc3)c(C)c2cc1OC" : value?
RESULT: 2870

====

Kindly supply the reported Ki values for the records listed here.
molecular target: 5-HT2A (Homo sapiens, UniProt P28223); construct: expressed in transfected cells; test: Secondary binding assay, Ki determination: 5-HT2A
Sequence (P28223 whole entry): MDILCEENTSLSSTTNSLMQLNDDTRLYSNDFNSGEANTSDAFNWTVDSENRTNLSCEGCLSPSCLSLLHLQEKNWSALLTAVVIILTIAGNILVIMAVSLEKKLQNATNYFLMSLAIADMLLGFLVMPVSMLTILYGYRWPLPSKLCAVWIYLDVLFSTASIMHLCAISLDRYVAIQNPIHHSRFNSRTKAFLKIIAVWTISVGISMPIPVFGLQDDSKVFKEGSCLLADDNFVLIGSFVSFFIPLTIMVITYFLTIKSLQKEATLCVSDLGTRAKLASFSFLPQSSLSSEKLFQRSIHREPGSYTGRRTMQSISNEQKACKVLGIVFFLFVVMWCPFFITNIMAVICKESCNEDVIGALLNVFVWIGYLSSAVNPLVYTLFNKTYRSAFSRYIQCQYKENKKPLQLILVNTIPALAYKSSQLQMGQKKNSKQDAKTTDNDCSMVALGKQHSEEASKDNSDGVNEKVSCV
Give bare numbers, in nM.

{"columns": ["Smiles Repr", "Readout Label", "Reading"],
 "data": [
  ["COc1ccc2c(C)c(C(=O)N(CCCN3CCCCC3)c3ccccc3)oc2c1", "Ki", 2770]
]}

Now take the following molecule into account.
QUERY: Looking for the measured Ki of "COc1cc2oc(C(=O)N(CCCN3CCCCC3)c3ccccc3)c(C)c2cc1OC" , can you help?
RESULT: 2560
